- System: HCC827/GR cells
- ASSAY TEXT: Cell viability assay (CellTiter-Glo 2.0), gefitinib-resistant HCC827/GR cells
- Assay type: cell-based, human
- RUN PARAMETERS: Table 2; 72 h drug treatment, EGFR TKI resistant cells, combination with EGFR TKI; read-out: Relative cell viability; IC50 HCC827GR
pIC50: −log10 of the molar value.
ASSAY METRIC: pIC50

[ask] Fill in: pIC50 of CC(C)c1c(Oc2ccc(NC(=O)c3cn(C(C)C)c(=O)n(-c4ccc(F)cc4)c3=O)cc2F)ccnc1N is ___
[reply] > 7.00

====

- TESTED TARGET: MER (Homo sapiens, UniProt Q12866)
- Sequence (Q12866 21-999): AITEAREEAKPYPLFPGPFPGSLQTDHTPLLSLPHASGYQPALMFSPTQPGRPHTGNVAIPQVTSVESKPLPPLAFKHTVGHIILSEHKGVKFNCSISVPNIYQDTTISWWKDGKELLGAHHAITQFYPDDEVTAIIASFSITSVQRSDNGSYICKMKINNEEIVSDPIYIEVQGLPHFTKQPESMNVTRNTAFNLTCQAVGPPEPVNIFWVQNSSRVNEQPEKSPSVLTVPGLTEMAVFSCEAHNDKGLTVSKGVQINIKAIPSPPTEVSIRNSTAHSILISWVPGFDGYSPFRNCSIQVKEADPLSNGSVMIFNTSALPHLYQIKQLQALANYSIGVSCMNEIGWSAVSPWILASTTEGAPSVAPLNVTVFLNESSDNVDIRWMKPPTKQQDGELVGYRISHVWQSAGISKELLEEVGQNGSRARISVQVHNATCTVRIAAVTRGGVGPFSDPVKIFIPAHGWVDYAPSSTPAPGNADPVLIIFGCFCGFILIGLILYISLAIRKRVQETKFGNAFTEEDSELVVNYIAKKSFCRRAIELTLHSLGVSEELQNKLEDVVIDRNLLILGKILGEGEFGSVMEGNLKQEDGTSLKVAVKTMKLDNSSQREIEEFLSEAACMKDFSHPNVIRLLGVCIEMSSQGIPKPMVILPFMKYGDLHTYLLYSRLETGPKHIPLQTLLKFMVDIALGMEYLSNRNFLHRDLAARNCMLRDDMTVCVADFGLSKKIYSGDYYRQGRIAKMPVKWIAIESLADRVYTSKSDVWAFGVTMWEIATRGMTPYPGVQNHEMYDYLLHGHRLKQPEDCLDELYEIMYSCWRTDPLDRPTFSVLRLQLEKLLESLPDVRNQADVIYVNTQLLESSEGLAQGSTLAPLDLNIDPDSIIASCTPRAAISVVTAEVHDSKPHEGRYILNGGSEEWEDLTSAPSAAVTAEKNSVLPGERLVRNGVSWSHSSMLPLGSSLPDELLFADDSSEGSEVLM
- ASSAY TEXT: Enzymatic kinase assay (ADP-Glo), MER
- Format: biochemical
- RUN PARAMETERS: Table 1; poly (Glu4, Tyr1) substrate, 60 min room temperature, ADP-GLO luminescence
ASSAY METRIC: IC50

[ask] Recorded IC50 of CC(C)c1c(Oc2ccc(NC(=O)c3cn(C(C)C)c(=O)n(-c4ccc(F)cc4)c3=O)cc2F)ccnc1N , please.
[reply] < 100 nM
